Each entry below lists one item and its recorded z-score value.
# testProtocol: P. aeruginosa biofilm formation inhibitors, primary screen, PAO1 strain, BacTiter-Glo luminescence, LB-PBS (AID 1144)
# conditionContext: 12 h, higher = more signal
The source made the active and inactive calls. No rule for the calls is given here.

compound: CCCC=C(CCC)[C@@H](NC(=O)c1ccc(C(F)(F)F)cc1)c1ccccc1
z-score: -0.383 (inactive)
--
compound: COc1ccc(C(=O)Nc2ccc(CN3C(=O)[C@]4(O[C@H](CCn5cc(CCO)nn5)[C@@H]([Si](C)(C)c5ccc(OC)cc5)[C@@H]4C)c4ccccc43)cc2)cc1
z-score: -0.637 (inactive)
--
compound: COC(=O)Cn1c(C(=O)N2CCCC2)cc2c1C[C@H]1CN(C(=O)c3ccccc3)[C@@](Cc3ccccc3)(C(=O)OC)[C@@H]21
z-score: -0.195 (inactive)
--
compound: C=CC[C@]1(C(=O)O)N=C(c2ccc(OCCCO)cc2)O[C@H]1c1ccccc1N=[N+]=[N-]
z-score: 1.09 (inactive)
--
compound: CC(C)C[C@@H]1NC(=O)[C@H]2C[C@@H](C(=O)NCCCCCC[N+](C)(C)C)[C@@H](c3ccc(O)cc3)N2C1=O
z-score: -0.337 (inactive)
--
compound: O=C1O[C@H](c2ccccc2)[C@H](c2ccccc2)N2[C@H]1[C@@H](C(=O)Nc1nc3ccccc3s1)[C@]1(C(=O)Nc3ccc(C#CC4=CCCCC4)cc31)[C@H]2c1ccccc1OCCO
z-score: 0.331 (inactive)

I'd like to know its z-score. The compound in question is Cc1cc(C)c(C(O)C2C=CC3C(=O)N(C)C(=O)C3N2N2CCCCC2)c(C)c1 (stereo not drawn)
-0.276 (inactive)

I'd like to know its z-score. The compound in question is `COCCOC(=O)N1C(=O)[C@@]2(c3cc(C#CCNC(N)=O)ccc31)[C@H](c1ccccc1OCCO)N1[C@H](c3ccccc3)[C@H](c3ccccc3)OC(=O)[C@H]1[C@@H]2C(=O)NC[C@H](O)c1ccccc1`
-0.209 (inactive)

I'd like to know its z-score. The compound in question is `COCCOC(=O)N1C(=O)[C@@]2(c3cc(C#CCCO)ccc31)[C@H](c1ccc(O)cc1)N1[C@H](c3ccccc3)[C@H](c3ccccc3)OC(=O)[C@H]1[C@@H]2C(=O)Nc1nc2ccccc2s1`
-1.24 (inactive)

I'd like to know its z-score. The compound in question is `CCc1cccc(NC(=O)O[C@H]2[C@H](OC(=O)Nc3ccccc3)[C@@H](OC(=O)Nc3ccccc3)[C@@H](OC)O[C@@H]2CO)c1`
-0.944 (inactive)

I'd like to know its z-score. The compound in question is CN1C(=O)C2C=CC(C(O)c3ccc(N(C)C)cc3)N(Nc3ccc([N+](=O)[O-])cc3[N+](=O)[O-])C2C1=O (stereo not drawn)
-0.202 (inactive)

I'd like to know its z-score. The compound in question is `O=C1O[C@@H](c2ccccc2)[C@@H](c2ccccc2)N2[C@@H](c3ccc(OCCO)cc3)[C@]3(C(=O)Nc4ccc(C#CCCO)cc43)[C@@H](C(=O)N3CCN(c4ncccn4)CC3)[C@H]12`
-0.132 (inactive)

I'd like to know its z-score. The compound in question is `C#C[C@H](O[Si](C#Cc1ccccc1)(C(C)C)C(C)C)c1ccccc1`
-0.368 (inactive)

* * *

# testProtocol: modulators of HCV replicon luciferase signal, primary screen, HCV replication inhibitor project, Huh7 cells, luciferase reporter (AID 1109);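 also: huh7 hepatoma cells harbouring a luciferase neomycin HCV replicon reporter; luciferase luminescence as measure of HCV replicon replication; test concentration not given here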
# conditionContext: 48 h, higher = more signal
property: z-score
Please give the numeric answer without any surrounding text.

molecule: O=C(NCc1ccccc1)c1ccc(Br)cc1[N+](=O)[O-]
property: z-score
resultNumber: -0.3
//
molecule: O=C1O[C@@H](c2ccccc2)[C@@H](c2ccccc2)N2[C@@H](c3ccc(O)cc3)[C@]3(C(=O)Nc4ccccc43)[C@@H](C(=O)N3CCN(c4ncccn4)CC3)[C@H]12
property: z-score
resultNumber: -1.91
//
molecule: COC(=O)C1=CC(c2ccc(CO)cc2)=CC(C2CC2)N(Cc2sc3ccccc3c2Cl)C=C1C(=O)OC (stereo not given)
property: z-score
resultNumber: -1.27
//
molecule: COC(=O)c1c(CC[C@@H](CO)NC(=O)N[C@H](Cn2cc(-c3cncn3C)nn2)C(C)C)oc(C(C)=O)c1C(=O)OC
property: z-score
resultNumber: 0.0688
//
molecule: C=CCC(OC(C)=O)[C@@H]1[C@@H](N(Cc2cc3ccccc3o2)C(=O)Cc2ccc(F)cc2)c2cc(OCCCO)ccc2N1C(=O)c1ccc(-c2ccccc2)cc1 (stereo not given in full)
property: z-score
resultNumber: 0.591
//
molecule: C=C(C(=O)CC[C@H](OC(=O)c1ccccc1-c1ccccc1C(=O)O)c1ccc(CO)o1)C(C)C
property: z-score
resultNumber: -1.3
//
molecule: N#Cc1ccc(NN2C(C(O)c3ccc(I)cc3)C=CC3C(=O)N(c4ccccc4)C(=O)C32)cc1 (stereo not given)
property: z-score
resultNumber: 1.56
//
molecule: O=C(NCc1ccccc1)[C@@]1(CCS(=O)(=O)c2ccccc2)COC(c2ccc(OCCCO)cc2)=N1
property: z-score
resultNumber: -1.71

I'd like to know its z-score. The molecule in question is `COc1ccc(CCN2C(=O)[C@@]3(c4ccc([N+](=O)[O-])cc4)CC(=O)N(CC45CC6CC(CC(C6)C4)C5)[C@@H]3c3ccc(CO)cc32)cc1`
-0.673

I'd like to know its z-score. The molecule in question is `CO[C@]12C=C(Br)[C@@H](C[C@@H]1c1ccccc1)[C@@]1(CO1)C2=O`
-2.97

I'd like to know its z-score. The molecule in question is `CC(C)CN1C(=O)[C@@]2(Cc3ccccc31)c1ccccc1C(=O)N(C1CCCCC1)[C@H]2c1ccc(CO)cc1`
-0.192

* * *

# testProtocol: small-molecule binders of probe aNOTCH3, primary screen, biochemical, small-molecule microarray, 635/667 nm fluorescence (AID 1120);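 also: probe is a biotin-tagged antibody raised against NOTCH3 rather than NOTCH3 protein; score merges spot fluorescence near 667 nm with spot signal to noise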
# conditionContext: higher = more signal
Each entry below lists one item and its recorded composite z-score value.
Please give the numeric answer without any surrounding text.

Please review the following examples before continuing.
compound: CC(C)=C1C(=O)C(c2ccccc2)=C2CN3C(=O)N(CCc4ccccc4)C(=O)[C@]3(Cc3ccccc3)[C@H]21
composite z-score: -0.0209
--
compound: COC(=O)[C@H]1[C@@H]2COc3ccccc3[C@H]2N[C@H]1C(=O)OC
composite z-score: -0.0351
--
compound: CCOC(=O)C[C@H]1[C@H](OC(=O)c2cc3ccccc3oc2=O)[C@@H](NC(=O)c2ccc3ccccc3c2)c2cc(OCCCO)ccc2N1C(=O)c1ccc2ccccc2n1
composite z-score: 0.0842
--
compound: Cc1ccc([C@@H]2CC=C(C(=O)O)[C@H](c3ccccc3)N2S(=O)(=O)c2ccc(C)cc2)cc1
composite z-score: 0.254

I'd like to know its composite z-score. The compound in question is CC[C@H]1C2=C3C(CC[C@H]4C(OC)OC[C@](C)([C@@H]34)N(C(=O)OC(C)(C)C)C2)C(CO)C1CO (some centres not stated)
0.619

I'd like to know its composite z-score. The compound in question is `COC(=O)Cn1c(C(=O)N2CCCC2)cc2c1C[C@H]1CN(C(=O)c3ccccc3)[C@@](Cc3ccc(OC)cc3)(C(=O)OC)[C@@H]21`
0.707

I'd like to know its composite z-score. The compound in question is `[N-]=[N+]=NCc1ccccc1C[C@@]1(C(=O)N2CCOCC2)N=C(c2ccc(OCCCO)cc2)O[C@@H]1c1ccccc1N=[N+]=[N-]`
0.402

* * *

Each entry below lists one item and its recorded composite z-score value.
# Test system: wheat germ agglutinin (Triticum aestivum), Alexa647-labelled
# testProtocol: wheat germ agglutinin binders on compound microarrays, profiling panel, artefact control for SMM control-protein annotation, biochemical, small-molecule microarray, 635/667 nm fluorescence (AID 1140);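 also: score merges 667 nm feature emission with signal to noise over triplicate slides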
# conditionContext: WGA-A647 binding, 635 nm fluorescence, higher = more signal
Please give the numeric answer without any surrounding text.

Please review the following examples before continuing.
compound: C=CCC1=C[C@H]2[C@H]([C@@H]3C=C[C@]2(CC=C)C(=O)[C@]32CO2)[C@@]2(CO2)C1=O
composite z-score: -0.0818
//
compound: C=CCC(OC(C)=O)[C@@H]1[C@@H](N(Cc2ccc(-c3cccc(C(F)(F)F)c3)o2)C(=O)Cc2ccc(F)cc2)c2cc(OCCCO)ccc2N1C(=O)c1ccc(-c2ccccc2)cc1 (some centres not stated)
composite z-score: 0.294
//
compound: C=CCC(OC(C)=O)[C@@H]1[C@@H](N(Cc2ccc(-c3ccccc3)cc2)C(=O)c2ccc(-c3ccccc3)cc2)c2cc(OCCCO)ccc2N1C(=O)Cc1ccc(OC)cc1 (some centres not stated)
composite z-score: 0.192
//
compound: C=CC[C@]1(C(=O)O)N=C(c2ccc(OCCCO)cc2)O[C@H]1c1ccccc1N=[N+]=[N-]
composite z-score: 0.0828
//
compound: O=C1NC(=O)C2C1C=CC(C(O)C=Cc1ccc([N+](=O)[O-])cc1)N2Nc1ccccn1 (configuration not stated)
composite z-score: 0.551

I'd like to know its composite z-score. The compound in question is `CC(C)(C)OC(=O)CC[C@]1(C(=O)N2CCCCC2)N=C(c2ccc(OCCCO)cc2)O[C@H]1c1ccccc1`
1.27

I'd like to know its composite z-score. The compound in question is `Cc1ccc(S[C@]2(C(=O)NCCCN(C)C)CC(=O)N(Cc3ccccc3)[C@@H]2c2ccc(CO)cc2I)cc1`
0.876
